system-name: T1, human GPC3 on cells (human, UniProt P51654 25-554)
T1 construct: whole, on cells; over-expressed on CHOK1 cells or endogenous on HEPG2, Hep3B and Huh-7 hepatocellular carcinoma cells; the cell line is named under assay; also called GPC3-CHOK1 cells; human GPC3 over-expressed CHOK1 cells
assay-procedure: FACS, HEPG2 cells
Measured EC50 values are reported for all entries that follow.
The answer is to be given in µg/mL; state only the numeric part.

The examples below pair each entry with its known result.
# binder, readout-units, numeric-result
data = [
    ("52H5D3B8-6#-VH1+VL4 (antibody, V domains shown, humanized) VH: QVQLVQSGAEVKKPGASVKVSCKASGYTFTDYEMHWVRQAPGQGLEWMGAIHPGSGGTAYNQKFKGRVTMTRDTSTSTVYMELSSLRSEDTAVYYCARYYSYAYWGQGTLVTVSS VL: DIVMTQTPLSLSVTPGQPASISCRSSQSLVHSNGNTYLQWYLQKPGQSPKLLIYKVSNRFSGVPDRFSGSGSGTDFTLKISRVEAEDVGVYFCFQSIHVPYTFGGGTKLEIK", "µg/mL", 0.0391),
    ("52H5D3B8-6#-VH1+VL1 (antibody, V domains shown, humanized) VH: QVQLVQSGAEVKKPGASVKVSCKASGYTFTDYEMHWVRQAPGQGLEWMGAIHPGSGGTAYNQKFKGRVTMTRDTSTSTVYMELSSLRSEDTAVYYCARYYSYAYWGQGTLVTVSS VL: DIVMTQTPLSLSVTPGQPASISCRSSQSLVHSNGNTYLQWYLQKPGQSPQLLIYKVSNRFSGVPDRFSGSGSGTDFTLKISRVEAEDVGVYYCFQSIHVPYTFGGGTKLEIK", "µg/mL", 0.0411),
    ("52H5D3B8-6# chimeric mAb (antibody, V domains shown, CDR3 mutant of the 52H5D3B8 chimeric mAb (human IgG1); also called 52H5D3B8-6#-VH+VL) VH: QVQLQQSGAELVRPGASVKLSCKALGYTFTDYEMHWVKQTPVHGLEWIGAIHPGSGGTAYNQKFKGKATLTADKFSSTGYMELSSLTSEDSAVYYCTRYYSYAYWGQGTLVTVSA VL: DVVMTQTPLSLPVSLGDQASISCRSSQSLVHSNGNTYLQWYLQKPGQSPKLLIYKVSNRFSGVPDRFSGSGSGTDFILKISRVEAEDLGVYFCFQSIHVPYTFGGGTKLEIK", "µg/mL", 0.0452),
]

Turning now to a further record.
Request: For 52H5D3B8-6#-VH3+VL1 (antibody, V domains shown, humanized) VH: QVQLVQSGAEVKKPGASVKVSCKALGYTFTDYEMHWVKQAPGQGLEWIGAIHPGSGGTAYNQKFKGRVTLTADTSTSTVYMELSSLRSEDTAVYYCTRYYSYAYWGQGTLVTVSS VL: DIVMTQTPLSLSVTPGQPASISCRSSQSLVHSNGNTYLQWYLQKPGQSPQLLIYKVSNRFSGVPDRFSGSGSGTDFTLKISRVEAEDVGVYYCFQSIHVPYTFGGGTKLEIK , what is its reported EC50?
Result: 0.0471

Cited source for all entries: patent US20240409663A1
